- condition.details: in methanol, 298.15 K
measure.name: solubility (mole fraction)

Task: Returns the measured solubility (mole fraction) for the input compound. Input: CCC(C)n1ncn(-c2ccc(N3CCN(c4ccc(OC[C@H]5CO[C@](Cn6cncn6)(c6ccc(Cl)cc6Cl)O5)cc4)CC3)cc2)c1=O (mixture of isomers)
Output: 3.7e-05

* * *

- condition.details: in DMSO, 308.15 K
measure.name: solubility (mole fraction)

Task: Returns the measured solubility (mole fraction) for the input compound. Input: CCC(C)n1ncn(-c2ccc(N3CCN(c4ccc(OC[C@H]5CO[C@](Cn6cncn6)(c6ccc(Cl)cc6Cl)O5)cc4)CC3)cc2)c1=O (mixture of isomers)
Output: 0.000579

* * *

- condition.details: in methanol, 288.15 K
measure.name: solubility (mole fraction)
# answer = number (no unit)

Task: Returns the measured solubility (mole fraction) for the input molecule. Input: CCC(C)n1ncn(-c2ccc(N3CCN(c4ccc(OC[C@H]5CO[C@](Cn6cncn6)(c6ccc(Cl)cc6Cl)O5)cc4)CC3)cc2)c1=O (mixture of isomers)
Output: 2.14e-05

* * *

- condition.details: in isopropanol, 283.15 K
measure.name: solubility (mole fraction)
# answer = number (no unit)

Task: Returns the measured solubility (mole fraction) for the input compound. Input: CCC(C)n1ncn(-c2ccc(N3CCN(c4ccc(OC[C@H]5CO[C@](Cn6cncn6)(c6ccc(Cl)cc6Cl)O5)cc4)CC3)cc2)c1=O (mixture of isomers)
Output: 8.3e-06

* * *

- condition.details: in ethanol, 303.15 K
measure.name: solubility (mole fraction)
# answer = number (no unit)

Task: Returns the measured solubility (mole fraction) for the input molecule. Input: CCC(C)n1ncn(-c2ccc(N3CCN(c4ccc(OC[C@H]5CO[C@](Cn6cncn6)(c6ccc(Cl)cc6Cl)O5)cc4)CC3)cc2)c1=O (mixture of isomers)
Output: 2.16e-05

* * *

- condition.details: in isopropanol, 318.15 K
measure.name: solubility (mole fraction)
# answer = number (no unit)

Task: Returns the measured solubility (mole fraction) for the input compound. Input: CCC(C)n1ncn(-c2ccc(N3CCN(c4ccc(OC[C@H]5CO[C@](Cn6cncn6)(c6ccc(Cl)cc6Cl)O5)cc4)CC3)cc2)c1=O (mixture of isomers)
Output: 3.65e-05

* * *

- condition.details: in water, 298.15 K
measure.name: solubility (mole fraction)

Task: Returns the measured solubility (mole fraction) for the input molecule. Input: CCC(C)n1ncn(-c2ccc(N3CCN(c4ccc(OC[C@H]5CO[C@](Cn6cncn6)(c6ccc(Cl)cc6Cl)O5)cc4)CC3)cc2)c1=O (mixture of isomers)
Output: 1.55e-08

* * *

- condition.details: in isopropanol, 308.15 K
measure.name: solubility (mole fraction)

Task: Returns the measured solubility (mole fraction) for the input compound. Input: CCC(C)n1ncn(-c2ccc(N3CCN(c4ccc(OC[C@H]5CO[C@](Cn6cncn6)(c6ccc(Cl)cc6Cl)O5)cc4)CC3)cc2)c1=O (mixture of isomers)
Output: 2.48e-05

* * *

- condition.details: in methanol, 323.15 K
measure.name: solubility (mole fraction)

Task: Returns the measured solubility (mole fraction) for the input molecule. Input: CCC(C)n1ncn(-c2ccc(N3CCN(c4ccc(OC[C@H]5CO[C@](Cn6cncn6)(c6ccc(Cl)cc6Cl)O5)cc4)CC3)cc2)c1=O (mixture of isomers)
Output: 0.00012

* * *

- condition.details: in DMSO, 298.15 K
measure.name: solubility (mole fraction)
# answer = number (no unit)

Task: Returns the measured solubility (mole fraction) for the input molecule. Input: CCC(C)n1ncn(-c2ccc(N3CCN(c4ccc(OC[C@H]5CO[C@](Cn6cncn6)(c6ccc(Cl)cc6Cl)O5)cc4)CC3)cc2)c1=O (mixture of isomers)
Output: 0.000391

* * *

- condition.details: in isopropanol, 313.15 K
measure.name: solubility (mole fraction)
# answer = number (no unit)

Task: Returns the measured solubility (mole fraction) for the input compound. Input: CCC(C)n1ncn(-c2ccc(N3CCN(c4ccc(OC[C@H]5CO[C@](Cn6cncn6)(c6ccc(Cl)cc6Cl)O5)cc4)CC3)cc2)c1=O (mixture of isomers)
Output: 3.02e-05

* * *

- condition.details: in DMSO, 313.15 K
measure.name: solubility (mole fraction)
# answer = number (no unit)

Task: Returns the measured solubility (mole fraction) for the input compound. Input: CCC(C)n1ncn(-c2ccc(N3CCN(c4ccc(OC[C@H]5CO[C@](Cn6cncn6)(c6ccc(Cl)cc6Cl)O5)cc4)CC3)cc2)c1=O (mixture of isomers)
Output: 0.000707

* * *

- condition.details: in DMSO, 323.15 K
measure.name: solubility (mole fraction)
# answer = number (no unit)

Task: Returns the measured solubility (mole fraction) for the input compound. Input: CCC(C)n1ncn(-c2ccc(N3CCN(c4ccc(OC[C@H]5CO[C@](Cn6cncn6)(c6ccc(Cl)cc6Cl)O5)cc4)CC3)cc2)c1=O (mixture of isomers)
Output: 0.00107

* * *

- condition.details: in ethanol, 298.15 K
measure.name: solubility (mole fraction)
# answer = number (no unit)

Task: Returns the measured solubility (mole fraction) for the input compound. Input: CCC(C)n1ncn(-c2ccc(N3CCN(c4ccc(OC[C@H]5CO[C@](Cn6cncn6)(c6ccc(Cl)cc6Cl)O5)cc4)CC3)cc2)c1=O (mixture of isomers)
Output: 1.66e-05

* * *

- condition.details: in water, 318.15 K
measure.name: solubility (mole fraction)
# answer = number (no unit)

Task: Returns the measured solubility (mole fraction) for the input compound. Input: CCC(C)n1ncn(-c2ccc(N3CCN(c4ccc(OC[C@H]5CO[C@](Cn6cncn6)(c6ccc(Cl)cc6Cl)O5)cc4)CC3)cc2)c1=O (mixture of isomers)
Output: 8.36e-08

* * *

- condition.details: in water, 313.15 K
measure.name: solubility (mole fraction)
# answer = number (no unit)

Task: Returns the measured solubility (mole fraction) for the input molecule. Input: CCC(C)n1ncn(-c2ccc(N3CCN(c4ccc(OC[C@H]5CO[C@](Cn6cncn6)(c6ccc(Cl)cc6Cl)O5)cc4)CC3)cc2)c1=O (mixture of isomers)
Output: 5.55e-08

* * *

- condition.details: in DMSO, 288.15 K
measure.name: solubility (mole fraction)
# answer = number (no unit)

Task: Returns the measured solubility (mole fraction) for the input compound. Input: CCC(C)n1ncn(-c2ccc(N3CCN(c4ccc(OC[C@H]5CO[C@](Cn6cncn6)(c6ccc(Cl)cc6Cl)O5)cc4)CC3)cc2)c1=O (mixture of isomers)
Output: 0.000237

* * *

- condition.details: in DMSO, 283.15 K
measure.name: solubility (mole fraction)
# answer = number (no unit)

Task: Returns the measured solubility (mole fraction) for the input compound. Input: CCC(C)n1ncn(-c2ccc(N3CCN(c4ccc(OC[C@H]5CO[C@](Cn6cncn6)(c6ccc(Cl)cc6Cl)O5)cc4)CC3)cc2)c1=O (mixture of isomers)
Output: 0.000184

* * *

- condition.details: in methanol, 318.15 K
measure.name: solubility (mole fraction)
# answer = number (no unit)

Task: Returns the measured solubility (mole fraction) for the input molecule. Input: CCC(C)n1ncn(-c2ccc(N3CCN(c4ccc(OC[C@H]5CO[C@](Cn6cncn6)(c6ccc(Cl)cc6Cl)O5)cc4)CC3)cc2)c1=O (mixture of isomers)
Output: 9.7e-05

* * *

- condition.details: in ethanol, 308.15 K
measure.name: solubility (mole fraction)
# answer = number (no unit)

Task: Returns the measured solubility (mole fraction) for the input compound. Input: CCC(C)n1ncn(-c2ccc(N3CCN(c4ccc(OC[C@H]5CO[C@](Cn6cncn6)(c6ccc(Cl)cc6Cl)O5)cc4)CC3)cc2)c1=O (mixture of isomers)
Output: 2.83e-05

* * *

- condition.details: in water, 308.15 K
measure.name: solubility (mole fraction)

Task: Returns the measured solubility (mole fraction) for the input compound. Input: CCC(C)n1ncn(-c2ccc(N3CCN(c4ccc(OC[C@H]5CO[C@](Cn6cncn6)(c6ccc(Cl)cc6Cl)O5)cc4)CC3)cc2)c1=O (mixture of isomers)
Output: 3.69e-08

* * *

- condition.details: in isopropanol, 288.15 K
measure.name: solubility (mole fraction)
# answer = number (no unit)

Task: Returns the measured solubility (mole fraction) for the input compound. Input: CCC(C)n1ncn(-c2ccc(N3CCN(c4ccc(OC[C@H]5CO[C@](Cn6cncn6)(c6ccc(Cl)cc6Cl)O5)cc4)CC3)cc2)c1=O (mixture of isomers)
Output: 1.04e-05

* * *

- condition.details: in ethanol, 293.15 K
measure.name: solubility (mole fraction)
# answer = number (no unit)

Task: Returns the measured solubility (mole fraction) for the input molecule. Input: CCC(C)n1ncn(-c2ccc(N3CCN(c4ccc(OC[C@H]5CO[C@](Cn6cncn6)(c6ccc(Cl)cc6Cl)O5)cc4)CC3)cc2)c1=O (mixture of isomers)
Output: 1.26e-05

* * *

- condition.details: in methanol, 303.15 K
measure.name: solubility (mole fraction)
# answer = number (no unit)

Task: Returns the measured solubility (mole fraction) for the input compound. Input: CCC(C)n1ncn(-c2ccc(N3CCN(c4ccc(OC[C@H]5CO[C@](Cn6cncn6)(c6ccc(Cl)cc6Cl)O5)cc4)CC3)cc2)c1=O (mixture of isomers)
Output: 4.9e-05
